Recorded values, source PubChem BioAssay (NCI).

Recorded measurements of growth, one per entry
System: ACHN renal
Assay: NCI-60 one-dose screen, 48 h (100 = growth as untreated, 0 = no growth, -100 = all killed)
Details: 10 µM unless noted
This is part of a sample that, as a whole, favours compounds with a hit. Of some 83,000 tested, about 20% had one in any assay.
State just the number; it will be interpreted in %.

// worked examples, growth included
Molecule	Unit of measurement	Obs value
Clc1ccc(-c2nnc(Cn3ccnc3)o2)cc1	%	98.9
CCCCCCCSc1ccc(C(=O)O)cc1	%	94.6
CCOC(=O)c1nnn(-c2ccccc2)c1C1=CN(C)CCC1	%	100
Clc1ccc(/C=N\N=c2\scc(-c3ccc(Cl)cc3)n2/N=C/c2ccc(Cl)cc2)cc1	%	106

Prompt: What does the data say about its growth? Entry: `COc1ccc(-c2cncnc2N)cc1OC`
Completion: 104

====

Tested on: SF-268 CNS
Assay: NCI-60 one-dose screen, 48 h (100 = growth as untreated, 0 = no growth, -100 = all killed)
Settings: 10 µM unless noted
The panel holds about 83,000 compounds, 20% with a hit somewhere; the sample as a whole holds those more often. The source made the active and inactive calls. How the source made its calls: active means growth percent below 10; inactive means the rest.
Measure: growth

> print(dat)
                                   molecule  assayed.system         obs.value
1  CS(=O)(=O)c1ccc(-c2nc3cc(Cl)ccc3n2CC(=O)N/N=C/c2ccc(Cl)cc2)cc1      SF-268 CNS  50.2% (inactive)
2  Nc1ccc(S(=O)(=O)Nc2ccsc2-c2nc(-c3ccccc3)no2)cc1      SF-268 CNS  67.2% (inactive)
3                       CC(C)(O)c1cccc(F)c1      SF-268 CNS   106% (inactive)

Prompt: What does the data say about its growth? Entry: `Clc1ccc2c(NCCCN3CCN(c4nc(-n5ccnc5)nc5ccccc45)CC3)ccnc2c1`
Completion: 80% (inactive)

Prompt: What does the data say about its growth? Entry: `Cc1c2c(cn1Cc1ccccc1)CCc1cn(C)nc1-2`
Completion: 102% (inactive)

Prompt: What does the data say about its growth? Entry: `COc1ccc(-c2nnc(-c3ccc4c(c3)nc(-c3ccccc3)n4C3CCCCC3)o2)cc1`
Completion: 71.2% (inactive)

Prompt: What does the data say about its growth? Entry: `COc1cc(CNC(=O)/C=C/C=C/c2ccc3c(c2)OCO3)ccc1OCc1cn(-c2ccc(Cl)c(Cl)c2)nn1`
Completion: 18% (inactive)

====

Test system: NCI-H322M lung
Experiment: NCI-60 one-dose screen, 48 h (100 = growth as untreated, 0 = no growth, -100 = all killed)
Details: 10 µM unless noted
Compounds without any hit were thinned out: in the full panel of roughly 83,000, 20% have a hit.
Measure: growth (%)
State just the number; it will be interpreted in %.

// worked examples, growth included
> print(dat)
                                   compound  assayed.system  unit.of.measurement  obs.value
1  COc1ccc(-c2nc3sc4c(c3c(=O)[nH]2)CCCC4)c2ccccc12  NCI-H322M lung                    %       37.6
2  CN(C)CCCCNc1ccc(NCCCCN(C)C)c2c1C(=O)c1c(O)ccc(O)c1C2=O  NCI-H322M lung                    %       56.1
3  N#Cc1c(-c2ccccc2)nc(SCC2CO2)nc1N1CCOCC1 (stereo not given)  NCI-H322M lung                    %       65.8
4  O=C1C2=C(CCN(Cc3ccccc3)C2)N2CCN=C2N1Cc1ccc(C(F)(F)F)cc1  NCI-H322M lung                    %       37.8

Here is the next item to consider.
Prompt: What does the data say about its growth? Entry: `NC(=O)CC1(O)C=C(Br)C(=O)C(Br)=C1`
Completion: 113
